- system under test: rat metabotropic glutamate receptor 5 (mGluR5) (Rattus norvegicus, UniProt P31424)
- Construct: expressed in transfected cells; host or cells: HEK 293
- Sequence (P31424 21-1171 isoform P31424-2 limits assumed): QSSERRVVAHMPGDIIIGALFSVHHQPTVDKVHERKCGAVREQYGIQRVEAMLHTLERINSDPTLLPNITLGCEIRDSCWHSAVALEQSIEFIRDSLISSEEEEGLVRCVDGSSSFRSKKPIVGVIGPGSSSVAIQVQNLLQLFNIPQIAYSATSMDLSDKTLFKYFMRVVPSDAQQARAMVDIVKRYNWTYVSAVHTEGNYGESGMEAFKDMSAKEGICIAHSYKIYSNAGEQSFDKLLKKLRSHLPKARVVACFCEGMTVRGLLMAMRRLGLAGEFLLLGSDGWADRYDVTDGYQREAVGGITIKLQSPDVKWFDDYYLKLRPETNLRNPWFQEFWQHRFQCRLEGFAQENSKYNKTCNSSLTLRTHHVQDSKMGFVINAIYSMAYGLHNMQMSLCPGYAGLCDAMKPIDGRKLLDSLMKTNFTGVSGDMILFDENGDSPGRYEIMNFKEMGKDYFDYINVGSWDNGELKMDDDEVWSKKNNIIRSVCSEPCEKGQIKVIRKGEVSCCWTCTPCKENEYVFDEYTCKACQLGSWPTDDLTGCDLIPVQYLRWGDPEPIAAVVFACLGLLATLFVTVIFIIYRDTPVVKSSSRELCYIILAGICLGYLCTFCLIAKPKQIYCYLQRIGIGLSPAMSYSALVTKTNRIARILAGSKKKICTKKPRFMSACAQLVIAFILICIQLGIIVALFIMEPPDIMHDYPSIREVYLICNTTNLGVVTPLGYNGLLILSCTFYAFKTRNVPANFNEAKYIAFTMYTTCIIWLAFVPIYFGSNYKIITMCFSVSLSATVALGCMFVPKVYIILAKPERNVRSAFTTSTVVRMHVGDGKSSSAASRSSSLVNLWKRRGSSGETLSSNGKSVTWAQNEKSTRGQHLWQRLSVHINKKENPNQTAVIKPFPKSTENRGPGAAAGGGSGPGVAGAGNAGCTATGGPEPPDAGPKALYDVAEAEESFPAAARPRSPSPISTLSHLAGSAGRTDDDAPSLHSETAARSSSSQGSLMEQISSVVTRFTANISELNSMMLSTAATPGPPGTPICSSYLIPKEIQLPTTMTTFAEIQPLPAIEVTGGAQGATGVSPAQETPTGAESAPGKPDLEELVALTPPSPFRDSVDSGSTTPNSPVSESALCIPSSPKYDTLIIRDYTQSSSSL
- protocol notes: Calcium mobilization assay (FLIPR) for negative or positive allosteric activity, HEK 293 cells
- Type: cell-based
- run parameters: HEK293, negative allosteric modulation, inhibition of EC80 glutamate response; read-out: FLIPR maximum inhibition
Task for the reader: assign each of the following compounds its reported Emax.

O=C(NC12CC3CC(C1)CC(NC(=O)c1ccc4ccccc4n1)(C3)C2)c1ccc2ccccc2n1
63 to 99%
Cc1cncc(C(=O)NC23CC4CC(CC(NC(=O)c5ccc(F)c(C)c5)(C4)C2)C3)n1
63 to 99%
O=C(NC12CC3CC(C1)CC(NC(=O)c1cccc(Cl)c1)(C3)C2)c1cccc(Cl)c1
90 to 99%
O=C(NC12CC3CC(C1)CC(NC(=O)c1ccn4ccnc4c1)(C3)C2)c1cccc(F)c1
63 to 99%
Cc1cncc(C(=O)NC23CC4CC(CC(NC(=O)c5ccccn5)(C4)C2)C3)n1
63 to 99%
Cc1cccc(C(=O)NC23CC4CC(C2)CC(NC(=O)c2ccnc(C)n2)(C4)C3)n1
70 to 99%
O=C(NC12CC3CC(C1)CC(NC(=O)c1cnccn1)(C3)C2)c1cccc(F)c1
63 to 99%
O=C(NC12CC3CC(C1)CC(NC(=O)c1cnccn1)(C3)C2)c1ccccn1
70 to 99%
Cc1nc(C(=O)NC23CC4CC(CC(NC(=O)c5ccccn5)(C4)C2)C3)cs1
70 to 99%
Cc1ccn2cc(C(=O)NC34CC5CC(CC(NC(=O)c6cccc(C)n6)(C5)C3)C4)nc2c1
63 to 99%

Report Emax for every entry below.
1. Cc1cccc(C(=O)NC23CC4CC(C2)CC(NC(=O)c2cccc(N5CCC[C@H]5CO)n2)(C4)C3)n1
2. Cc1cccc(C(=O)NC23CC4CC(CC(NC(=O)c5ccccn5)(C4)C2)C3)n1

Response line:
1. 63 to 99%
2. 63 to 99%

Kindly give each listed record's Emax.
1. Cc1cccc(C(=O)NC23CC4CC(CC(NC(=O)c5cccc(F)c5)(C4)C2)C3)n1
2. O=C(NC12CC3CC(C1)CC(NC(=O)c1cccc(-n4ccnc4)n1)(C3)C2)c1ccccn1
3. Cc1cc(F)cc(C(=O)NC23CC4CC(C2)CC(NC(=O)c2cncc(C)n2)(C4)C3)c1
4. Cc1nccc(C(=O)NC23CC4CC(CC(NC(=O)c5ccccn5)(C4)C2)C3)n1

Response line:
["63 to 99%", "63 to 99%", "70 to 99%", "70 to 99%"]
